- SYSTEM_UNDER_TEST: Methionine--tRNA ligase, mitochondrial (Homo sapiens)
- METHOD_NOTES: inhibitors of human mitochondrial MetRS, late-stage follow-up, selectivity assay for T. brucei MetRS inhibitor project, biochemical, radioactivity, round 1 (AID 743061);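 further: 0% = DMSO with full reaction and 100% = DMSO wells lacking tRNA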
- ASSAY_SETUP: recombinant human mtMetRS, [3H]Met tRNA charging, at 1 µM, stronger effect = higher value
Consider the following molecules and their measured inhibition readings.
REPORTED_PROPERTY: inhibition (%)

MOLECULE | QUANTITATIVE_RESULT
Cc1[nH]c2ccc(Br)cc2c(=O)c1CN1CCCCCC1 | -31.2
Clc1ccc(OCCSCc2nc3ccccc3[nH]2)cc1 | -20
Cc1ccc(CNC(=O)CSc2nnc3c(n2)[nH]c2ccc(C)cc23)cc1 | 1.77
CCN(CC)C(=O)C(=O)c1cn(CC(=O)N(CC)c2ccccc2)c2ccccc12 | 2.19
O=C(NCCc1nc2ccccc2[nH]1)c1ccc(Cl)c(Cl)c1 | 2.38
O=C(CC=NOCc1ccc([N+](=O)[O-])cc1)Nc1ccc(Br)cc1 | -22.4
O=C(CC=NOCc1ccc([N+](=O)[O-])cc1)Nc1ccc(Cl)cc1 | -13
COCCc1nc2ccc(C(=O)NCCc3nc4ccc(OC)cc4[nH]3)cc2o1 | -5.43
CN(CC(=O)Nc1ccc(Cl)cc1)C(=O)c1ccc(-n2cncn2)c([N+](=O)[O-])c1 | -36.7
CCO[C@H]1OC(C(=O)NCc2nc3ccccc3[nH]2)=C[C@@H](c2ccc(Br)cc2)[C@@H]1CCCO | -15
Oc1c(Cl)cc(Cl)cc1CNc1nc2ccccc2[nH]1 | -0.2
CC(C)OCCCN1CC(=O)N2C(c3cccc([N+](=O)[O-])c3)c3[nH]c4ccccc4c3C[C@H]2C1=O (stereo partly specified) | -24.2
O=C(NCCc1nc2ccccc2[nH]1)c1ccc(Cl)cc1 | 5.42
CN(Cc1cc(Cl)cc(Cl)c1)[C@H]1C[C@H]2c3[nH]c4ccccc4c3CCN2C(=O)[C@H]1CO | 14
O=C(Cn1cc(C(=O)COc2ccccc2)c2ccccc21)Nc1cccc(C(F)(F)F)c1 | -22.6
O=C(NCc1nc2ccccc2[nH]1)C1=C[C@H](c2csc3ccccc23)C[C@H](OCCCCO)O1 | -9.21
O=C(CN1CCSC1=NCc1ccccc1)c1ccc(Cl)c(Cl)c1 | -25.1
CC(=O)c1cn(CC(=O)Nc2cccc(C(F)(F)F)c2)c2ccccc12 | -20.4
Cc1cccc2[nH]c(C3CCCN(C(=O)c4cccc5cccnc45)C3)nc12 (stereo unspecified) | -4.24
CCN(CCc1nc2ccc(C)cc2[nH]1)C(=O)c1ccc2ncccc2c1 | -5.17
O=C1CC(N(CCc2ccccc2)C(=S)Nc2ccccc2)C(=O)N1c1ccc(Br)cc1 (stereo unspecified) | -25.5
